- assay method text: A CellTox Green Cytotoxicity Assay to monitor cytotoxicity in HepG2 cells - 16 hour (AID 1224876); note: nearly all actives have a fitted effect of over 45% in size
- conditions used: CellTox Green fluorescence; series mostly up to 76.8 µM
- From the text: National Center for Advancing Translational Sciences [NCATS] NIH Chemical Genomics Center [NCGC] U.S. Environmental Protection Agency [EPA] National Institutes of Environmental Health Sciences [NIEHS] National Toxicology Program [NTP] Cell-based models are critical for drug discovery. […] Viable cells produce no appreciable increases in fluorescence. Therefore, the fluorescence signal produced by the binding interaction with dead cell DNA is proportional to cytotoxicity. […]
Records with an inconclusive call do not appear. Calls of active or inactive are those of the source. Calls come from the whole dose curve; as a rule, active = well fitted activation curve with a large enough effect in the repeat runs; inconclusive = weak or mixed curves; inactive = flat fitted curve, though single readings scatter.
Outcome codes: active, inactive

- molecule: "Cc1nc2n(c(=O)c1CCN1CCC(c3noc4cc(F)ccc34)CC1)CCCC2"
  class name: "inactive"
- molecule: "O=[N+]([O-])c1ccc(O)cc1C(F)(F)F"
  class name: "inactive"
- molecule: "OC/C=C/CO"
  class name: "inactive"
- molecule: "O=S(=O)(O)c1ccccc1/C=C/c1ccc(-c2ccc(/C=C/c3ccccc3S(=O)(=O)O)cc2)cc1"
  class name: "inactive"
- molecule: "C#C[C@]1(OC(C)=O)CC[C@H]2[C@@H]3CCC4=C[C@@H](OC(C)=O)CC[C@@H]4[C@H]3CC[C@@]21C"
  class name: "inactive"
- molecule: "c1ccc(C(O[C@@H]2CCCN(CCc3ccc4c(c3)OCO4)C2)c2ccccc2)cc1"
  class name: "inactive"
- molecule: "Clc1ccnc(Cl)n1"
  class name: "inactive"
- molecule: "O=C(O)c1cc(O)c2ccccc2c1O"
  class name: "active"
- molecule: "Cc1c(C)c2c(c(C)c1OC(=O)c1cccnc1)CC[C@@](C)(CCC[C@H](C)CCC[C@H](C)CCCC(C)C)O2"
  class name: "inactive"
- molecule: "CCC(=O)OC(=O)CC"
  class name: "inactive"
- molecule: "Nc1ccc(NCCO)c([N+](=O)[O-])c1"
  class name: "inactive"
- molecule: "COc1ccc(-c2coc3cc(O)ccc3c2=O)cc1"
  class name: "inactive"
- molecule: "O=C(O)CCN(C1(C(=O)NO)CCCC1)S(=O)(=O)c1ccc(Oc2ccc(F)cc2)cc1"
  class name: "inactive"
- molecule: "c1ccc(SSc2ccccc2)cc1"
  class name: "inactive"

* * *

- assay method text: qHTS assay to identify small molecule that activate the aryl hydrocarbon receptor (AhR) signaling pathway - cell viability counter screen (AID 743086); note: nearly all actives have a fitted effect of over 45% in size
- conditions used: HepG2-AhR-luc viability, CellTiter-Fluor, 24 h; series mostly up to 70.3 µM
Inconclusive results are not listed. Active and inactive are the calls of the source. Calls follow the shape of the dose curve; as a rule, active = well fitted cell-killing curve with a large enough effect in the repeat runs; inconclusive = weak or mixed curves, or effect the other way; inactive = flat fitted curve, though single readings scatter.
Possible outcomes: active, inactive

- compound: "CC1(C)CCC[C@]2(C)[C@H]3CCO[C@]3(C)CC[C@@H]12"
  class name: "inactive"
- compound: "O=C(O)[C@H](O)[C@@H](O)[C@H](O[C@@H]1O[C@H](CO)[C@H](O)[C@H](O)[C@H]1O)[C@H](O)CO"
  class name: "inactive"
- compound: "CCCCCCCCCCCC(=O)OCC(C)OC(=O)CCCCC(=O)O (stereo not drawn)"
  class name: "inactive"
- compound: "COc1cccc(OC)c1C(=O)O"
  class name: "inactive"
- compound: "O=C1NC(=O)[C@@H]2CC=CC[C@H]12"
  class name: "inactive"
- compound: "OC[C@H]1O[C@H](O[C@H]2O[C@H](CO)[C@@H](O)[C@H](O)[C@H]2O)[C@H](O)[C@@H](O)[C@@H]1O"
  class name: "inactive"
- compound: "CCCCOC(=O)CC"
  class name: "inactive"
- compound: "NC(=S)NC(N)=S"
  class name: "inactive"
- compound: "CCOC(=O)Cn1cccc1-c1nc(-c2ccc(OC)cc2)c(-c2ccc(OC)cc2)s1"
  class name: "inactive"
- compound: "CC1(C)[C@@H](O)CC[C@]2(C)[C@H]3C(=O)C=C4[C@@H]5C[C@@](C)(C(=O)O)CC[C@]5(C)CC[C@@]4(C)[C@]3(C)CC[C@@H]12"
  class name: "inactive"
- compound: "CN1CCN2c3ccccc3Cc3ccccc3C2C1 (stereo not drawn)"
  class name: "inactive"
- compound: "O=[N+]([O-])c1ccc(O)cc1C(F)(F)F"
  class name: "active"
- compound: "C/C=C/C=C/COC(=O)C(C)C"
  class name: "inactive"

* * *

- assay method text: Human pregnane X receptor (PXR) small molecule agonists, qHTS cell viability counter screen (AID 1346977); note: nearly all actives have a fitted effect of over 50% in size
- conditions used: PXR-Luc HepG2 viability, CellTiter-Fluor, 24 h; series mostly up to 92.4 µM
Records with an inconclusive call do not appear. Calls of active or inactive are those of the source. Calls come from the whole dose curve; as a rule, active = well fitted cell-killing curve with a large enough effect in the repeat runs; inconclusive = weak or mixed curves, or effect the other way; inactive = flat fitted curve, though single readings scatter.
Classes used: 1.0 = active, 0.0 = inactive

- compound: "[Cl][Pt-2]([Cl])([Cl])[Cl]"
  class name: 0.0
- compound: "O=C(O)Cc1ccccc1Nc1c(Cl)cccc1Cl"
  class name: 0.0
- compound: "CCOC(=O)Cn1cccc1-c1nc(-c2ccc(OC)cc2)c(-c2ccc(OC)cc2)s1"
  class name: 0.0
- compound: "OCCN1CCN(CCCN2c3ccccc3Sc3ccc(C(F)(F)F)cc32)CC1"
  class name: 1.0
- compound: "CCCCCCCCCCCCCC[N+](C)(C)Cc1ccccc1"
  class name: 1.0
- compound: "Cc1ccc(-c2ccccc2)cc1"
  class name: 0.0
- compound: "Nc1ccc(NCCO)c([N+](=O)[O-])c1"
  class name: 1.0
- compound: "CN1CCC[C@@H]1CCO[C@](C)(c1ccccc1)c1ccc(Cl)cc1"
  class name: 1.0
- compound: "CCN(CC)C(=O)c1cc(S(=O)(=O)Cc2ccccc2)c(N2CCC(c3ccccc3)CC2)cc1N(CC)CCN(C)C"
  class name: 1.0
- compound: "Nc1nc(-c2ccccc2)cs1"
  class name: 0.0
- compound: "CCCCOC(=O)CO"
  class name: 0.0
- compound: "CC(C)NC[C@@H](O)COc1ccc(CC(N)=O)cc1"
  class name: 0.0
- compound: "Nc1ccc(C(=O)O)c(O)c1"
  class name: 0.0
- compound: "CN1CCN(Cc2cc(-c3ccc4[nH]c(=O)oc4c3)co2)[C@@H](c2ccc(F)cc2)C1"
  class name: 1.0
- compound: "Clc1sc(Cl)c(Cl)c1Cl"
  class name: 0.0
- compound: "C=C(C)C(=O)OCCCCCCCCCC"
  class name: 1.0
- compound: "OC[C@@H](O)[C@@H](O)CO"
  class name: 0.0
- compound: "Cc1c(F)c(N2CCNC(C)C2)cc2c1c(=O)c(C(=O)O)cn2C1CC1 (centres undefined)"
  class name: 0.0
- compound: "O=S(=O)(O)c1ccc(Nc2nc(Nc3ccc(/C=C/c4ccc(Nc5nc(Nc6ccc(S(=O)(=O)O)cc6)nc(N(CCO)CCO)n5)cc4S(=O)(=O)O)c(S(=O)(=O)O)c3)nc(N(CCO)CCO)n2)cc1"
  class name: 0.0
- compound: "O=C1CCc2ccc(OCCCCN3CCN(c4cccc(Cl)c4Cl)CC3)cc2N1"
  class name: 1.0
- compound: "CC/C=C\\CCCCCO"
  class name: 0.0
- compound: "c1ccc(SSc2ccccc2)cc1"
  class name: 0.0
- compound: "CC(=O)CC(=O)Nc1ccc(S(=O)(=O)O)cc1"
  class name: 0.0
- compound: "COc1ccc2c(c1)c(CC(=O)OC/C=C(\\C)CC/C=C(\\C)CCC=C(C)C)c(C)n2C(=O)c1ccc(Cl)cc1"
  class name: 0.0
- compound: "CCCCCc1ccc(Cl)cc1"
  class name: 0.0
- compound: "CC(=O)OCC=C(C)C"
  class name: 0.0
- compound: "CCN(CCN)c1cccc(C)c1"
  class name: 0.0
- compound: "Cc1ccc(N/N=c2\\c(=O)cc/c(=N\\Nc3ccc(S(=O)(=O)O)cc3)c2=O)c(C)c1"
  class name: 1.0
- compound: "COc1cccc(OC)c1C(=O)O"
  class name: 0.0
- compound: "CCCCCCOC(=O)C(C)CC (centres undefined)"
  class name: 0.0
- compound: "CCCCOC(=O)CC"
  class name: 0.0
- compound: "c1ccc(C(O[C@@H]2CCCN(CCc3ccc4c(c3)OCO4)C2)c2ccccc2)cc1"
  class name: 1.0
- compound: "O=C1c2ccccc2C(=O)N1SC1CCCCC1"
  class name: 0.0
- compound: "O=C(Nc1ccc2c(O)c(N=Nc3ccc(N=Nc4ccc(S(=O)(=O)O)cc4)cc3)c(S(=O)(=O)O)cc2c1)c1ccccc1"
  class name: 1.0
- compound: "CN(C)Cc1cc(C(C)(C)C)c(O)c(C(C)(C)C)c1"
  class name: 0.0
- compound: "CN(C)CCN1CCN(c2cccc(Cl)c2)C1=O"
  class name: 0.0
- compound: "COC(C)=O"
  class name: 0.0
- compound: "Cl[Si](Cl)(c1ccccc1)c1ccccc1"
  class name: 0.0
- compound: "CCCC(=O)OCOC(=O)C1=C(C)NC(C)=C(C(=O)OC)C1c1cccc(Cl)c1Cl (centres undefined)"
  class name: 0.0

All values here come from PubChem BioAssay (Tox21).
